Some compounds, each annotated with its measured Percent Effect.
- System: Trypanosoma brucei
- Procedure details: Trypanosoma brucei 72 hour study
- Assay type: functional, organism-based
- Design: scale not given: in the data most compounds retested in dose-response had high values
- Measurement conditions: 30 µM; 30.03 µM
The whole screen tested about 66,000 compounds, of which about 960 (1.5%) showed an effect of 50% or more. This is one part of a sample in which strong results are shown more often than they occur.
Note to self: number, then unit, no commentary.

Smiles str: CCN1CC[C@@]2(C(=O)Nc3ccccc3)CCN(S(C)(=O)=O)CC[C@@H]12.O=C(O)C(F)(F)F
Quantity measured: Percent Effect
Measured: -16.54%

Smiles str: O=C(O)C(F)(F)F.O=C(c1ccco1)N1C[C@H]2CCCN(CC3CC3)[C@H]2C1
Quantity measured: Percent Effect
Measured: -18.48%

Now let's try a different one.
CCN(CC)c1ccc(CNC(=O)N2CCC(C#N)CC2)cc1 tested on Trypanosoma brucei gave Percent Effect: 36.77%

Origin of measurements: ChEMBL document CHEMBL3988442
